test system: Wolbachia pipientis; experiment: Anti-Wolbachia Cell-Based Screen; type: functional; set-up: scale not given: in the data most compounds retested in dose-response had high values; conditions: 5 µM
Among all 48,000 compounds or so, about 13,000 (27%) showed an effect of 50% or more. This is one part of the list.
assay.readout: Percent Effect (%)
One number for each entry, in %.

# compound, value.units, Percent Effect
records = [
    ("Cc1ccc(CN2CC[C@H]3C(=O)N(Cc4cccnc4)CCO[C@H]3C2)o1.O=C(O)C(F)(F)F.O=C(O)C(F)(F)F", "%", -24.56),
]

For each of the items listed, what is its Percent Effect?
1. O=C(NCc1ccc2c(c1)OCO2)[C@H]1C=CCN1c1ncccn1
2. OCC1CN(Cc2nc(C(F)(F)F)cs2)c2ccccc2O1 (configuration not stated)
3. CCS(=O)(=O)N1C[C@H]2CN(Cc3cccnc3)C(=O)[C@H]2C1.O=C(O)C(F)(F)F
4. CCCc1nnc(NC(C)c2ccc(F)cc2)o1 (configuration not stated)
5. O=C(NCc1ccc2c(c1)OCO2)[C@@H]1C=CCN1c1ncccn1
6. C[C@@H]1CN(CC(C)(C)N2CCCCC2)CC[C@@]1(O)C1CC1
7. CC(C)CN1CC(c2nc(CCc3ccccc3)n[nH]2)CC1=O (configuration not stated)

Response:
[120.2, 3.254, -7.035, -29.12, 142.5, 22.77, 6.531]
